Taken from patent US20170313764A1.

TESTED_TARGET: T1, soluble E2-his6-sortase tag from HCV isolate H77 (genotype 1a) (Hepatitis C virus genotype 1a, strain …, UniProt P27958 384-717)
T1 construct: also called E2-his6-ST; E2 genotype 1a
ASSAY: SPR (IBIS MX96), antibody spotted on chip, soluble E2-his as analyte
MEASUREMENT_TYPE: Kd

Here's what some known entries look like.
Input: Fill in the blank: the reported Kd of AT12-010 (antibody, V domains shown) VH: QLQLVQSGAEVKKPGSSVKVSCKASGGTFTSYAINWVRQVPGQGLEWMGEISPVFGTTHYAQKFQGRLKITADESADTAYMELSSLRSDDTAVYYCGRDRAPRLCSGGRCHSPPDHWGQGTLVTVSS VL: DIQMTQSPSSVSASVGDRVTITCRASQGFGNWLAWYQQKPGRAPKLLIFGASTLQNGVPSRFSGSASGTDFTLTITSLQPEDFATYYCLQTNTFPYTFGQGTKVEIKR is ____.
Output: 39.3 nM

Input: Item: AT13-021 (antibody, V domains shown) VH: QVQLVQSGAEVKKPGSSVKVSCKASGGTFNTHAFSWVRQAPGEGLEWMGGISPMSGTPNYAQKFQGRLTITADESTSTGYMELRSLTSEDTAVYYCARELIGYCTGGNCYSFGDFWGQGTLITVSS VL: EIVMTQSPATLSVSPGERATLSCRASQSVSSHLAWYQHKPGQAPRLLISGASTRAVGVPARFSGSGSGTEFTLTISSLQSEDFAVYYCHQYNTWPRGFGQGTKVDFKR
Output: 14.2 nM

Input: Item: AT12-011 (antibody, V domains shown) VH: QVQLVQSGAEVKKPGSSVKVSCKASGGTFSGYGITWVRQAPGQGLEWMGTIIPVSATETYAQRLQGRVTISADEHSTTSYMEVSSLKSEDTALYYCARHDYFWGTPLDIWGQGTMVIVSS VL: EIVLTQSPDFQSVTPKEKVTITCRASQSIGSNLHWYQQKPGQSPKLLIKYASQSFSGVPSRFSGSGSGTDFTLTINSLEAEDAATYFCHQSYNLPRTFGGGTKVEIKR
Output: 0.3 nM

Could you now look at the following binder, please?
Input: Fill in the blank: the reported Kd of AT12-007 (antibody, V domains shown) VH: QVQLEQSGAEVKKPGASVKVSCKVSGYTLTELSMHWVRQAPGKGLEWMGSFDPADGERLYAQKFQGRVIMSEDTSTDTAYMELSSLRSEDAAVYYCATAPRMTMFGVIMALDSWGQGTLVTVSS VL: DIQMTQSPSTLSASLGDRVTITCRASQNINKYLAWYQQKPGKAPKLLIYKASNLQSGVPSRFSGSGSGTDFILTISSLQPDDFATYYCQQYTTYSAWTFGQGTNVDIKR is ____.
Output: 44 nM
